Recorded IC50 at 72 h by entry
test: Cytotoxicity evaluation (CCK8), 293; conditions: human

[
  {
    "molecule": "Nc1ccn([C@@H]2O[C@H](CO)[C@@H](O)C2(F)F)c(=O)n1 [gemcitabine, reference compound]",
    "IC50 at 72 h": "0.0051 µM"
  },
  {
    "molecule": "C[C@H](NC(=O)c1c(Cc2ccc(F)cc2)sc2c1CCOC2)c1ccc(C(=O)O)cc1",
    "IC50 at 72 h": "> 100 µM"
  },
  {
    "molecule": "C[C@H](NC(=O)c1c(Cc2ccc(C(F)(F)F)cc2)sc2c1CCOC2)c1ccc(C(=O)O)cc1",
    "IC50 at 72 h": "> 100 µM"
  },
  {
    "molecule": "C[C@H](NC(=O)c1c(CCc2ccc(F)cc2)sc2c1CC(C)(C)OC2)c1ccc(C(=O)O)cc1",
    "IC50 at 72 h": "> 100 µM"
  },
  {
    "molecule": "C[C@H](NC(=O)c1c(CCc2ccc(F)cc2)sc2c1CCOC2)c1ccc(C(=O)O)cc1",
    "IC50 at 72 h": "> 100 µM"
  },
  {
    "molecule": "C[C@H](NC(=O)c1c(CCc2ccc(F)cc2)sc2c1CCCC2)c1ccc(C(=O)O)cc1",
    "IC50 at 72 h": "> 100 µM"
  }
]

----------
Recorded IC50 at 72 h by entry
assay: Cytotoxicity evaluation (CCK8), EMT-6; conditions: mouse, EMT-6 breast cancer cells
measuredEndpoint: IC50 at 72 h

[
  {
    "structureString": "C[C@H](NC(=O)c1c(Cc2ccc(C(F)(F)F)cc2)sc2c1CCOC2)c1ccc(C(=O)O)cc1",
    "assayValue": "> 100 µM"
  },
  {
    "structureString": "O=C(O)c1ccc(CNC(=O)c2c(Cc3ccc(F)cc3)sc3c2CCOC3)cc1",
    "assayValue": "> 100 µM"
  },
  {
    "structureString": "C[C@H](NC(=O)c1c(CCc2ccc(F)cc2)sc2c1CCOC2)c1ccc(C(=O)O)cc1",
    "assayValue": "> 100 µM"
  },
  {
    "structureString": "C[C@H](NC(=O)c1c(CCc2ccc(F)cc2)sc2c1CCCC2)c1ccc(C(=O)O)cc1",
    "assayValue": "> 100 µM"
  },
  {
    "structureString": "C[C@H](NC(=O)c1c(NCc2ccc(C(F)(F)F)cc2)sc2c1CCOC2)c1ccc(C(=O)O)cc1",
    "assayValue": "10 to 100 µM"
  }
]

----------
assay: Cytotoxicity evaluation (CCK8), PANC02; conditions: mouse, PANC02 pancreatic cancer cells
Recorded IC50 at 72 h by entry
measuredEndpoint: IC50 at 72 h

[
  {
    "compound": "C[C@H](NC(=O)c1c(Cc2ccc(F)cc2)sc2c1CCOC2)c1ccc(C(=O)O)cc1 [YJ114]",
    "measuredEndpoint": "IC50 at 72 h",
    "assayValue": "> 100 µM"
  },
  {
    "compound": "C[C@H](NC(=O)c1c(Cc2cccc(C(F)(F)F)c2)sc2c1CCOC2)c1ccc(C(=O)O)cc1 [YJ116]",
    "measuredEndpoint": "IC50 at 72 h",
    "assayValue": "> 100 µM"
  },
  {
    "compound": "Nc1ccn([C@@H]2O[C@H](CO)[C@@H](O)C2(F)F)c(=O)n1 [gemcitabine, reference compound]",
    "measuredEndpoint": "IC50 at 72 h",
    "assayValue": "0.0726 µM"
  },
  {
    "compound": "C[C@H](NC(=O)c1c(CCc2ccc(F)cc2)sc2c1CCC2)c1ccc(C(=O)O)cc1 [YJ109]",
    "measuredEndpoint": "IC50 at 72 h",
    "assayValue": "> 100 µM"
  },
  {
    "compound": "C[C@H](NC(=O)c1c(NCc2ccc(C(F)(F)F)cc2)sc2c1CCOC2)c1ccc(C(=O)O)cc1 [YJ121]",
    "measuredEndpoint": "IC50 at 72 h",
    "assayValue": "10 to 100 µM"
  },
  {
    "compound": "C[C@H](NC(=O)c1c(CCc2ccc(F)cc2)sc2c1CCCC2)c1ccc(C(=O)O)cc1 [YJ108]",
    "measuredEndpoint": "IC50 at 72 h",
    "assayValue": "> 100 µM"
  },
  {
    "compound": "C[C@H](NC(=O)c1c(C#Cc2ccc(F)cc2)sc2c1CCOC2)c1ccc(C(=O)O)cc1 [YJ101]",
    "measuredEndpoint": "IC50 at 72 h",
    "assayValue": "> 100 µM"
  },
  {
    "compound": "C[C@H](NC(=O)c1c(Cc2ccc(C(F)(F)F)cc2)sc2c1CCOC2)c1ccc(C(=O)O)cc1 [YJ115]",
    "measuredEndpoint": "IC50 at 72 h",
    "assayValue": "> 100 µM"
  }
]

----------
Recorded pIC50 by entry
target: human PGE2 receptor EP4 subtype (hEP4) (Homo sapiens); experiment: Calcium flux of human prostaglandin E2 receptor EP4 subtype; details: CHO-K1-Gα16 cells overexpressing hEP4, calcium flux activated by prostaglandin E2; read-out: hEP4 Ca^2+ IC50
Sequence (P35408 whole entry): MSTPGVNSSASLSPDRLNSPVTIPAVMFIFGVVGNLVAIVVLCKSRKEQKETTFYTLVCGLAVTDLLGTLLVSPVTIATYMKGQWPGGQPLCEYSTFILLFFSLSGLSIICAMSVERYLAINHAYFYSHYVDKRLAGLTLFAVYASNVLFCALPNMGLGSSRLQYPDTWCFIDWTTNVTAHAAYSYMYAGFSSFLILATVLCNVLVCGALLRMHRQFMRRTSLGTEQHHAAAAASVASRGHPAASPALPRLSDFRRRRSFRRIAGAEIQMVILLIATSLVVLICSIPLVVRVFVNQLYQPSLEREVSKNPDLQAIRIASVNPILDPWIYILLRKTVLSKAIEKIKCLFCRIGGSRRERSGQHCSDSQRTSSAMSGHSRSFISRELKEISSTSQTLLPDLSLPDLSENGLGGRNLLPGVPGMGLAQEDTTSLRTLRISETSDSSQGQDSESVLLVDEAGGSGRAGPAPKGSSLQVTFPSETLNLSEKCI
pIC50: −log10 of the molar value.

[
  {
    "compound": "C[C@H](NC(=O)c1c(C#Cc2ccc(F)cc2)sc2c1CCC2)c1ccc(C(=O)O)cc1",
    "targetOrSystem": "human PGE2 receptor EP4 subtype (hEP4) (Homo sapiens)",
    "pIC50": "> 7.00"
  },
  {
    "compound": "C[C@H](NC(=O)c1c(Cc2cccc(Cl)c2)sc2c1CCOC2)c1ccc(C(=O)O)cc1",
    "targetOrSystem": "human PGE2 receptor EP4 subtype (hEP4) (Homo sapiens)",
    "pIC50": "> 7.00"
  },
  {
    "compound": "C[C@H](NC(=O)c1c(Cc2cccc(F)c2)sc2c1CCOC2)c1ccc(C(=O)O)cc1",
    "targetOrSystem": "human PGE2 receptor EP4 subtype (hEP4) (Homo sapiens)",
    "pIC50": "> 7.00"
  },
  {
    "compound": "C[C@H](NC(=O)c1c(CCc2cccc(F)c2)sc2c1CCOC2)c1ccc(C(=O)O)cc1",
    "targetOrSystem": "human PGE2 receptor EP4 subtype (hEP4) (Homo sapiens)",
    "pIC50": "> 7.00"
  },
  {
    "compound": "C[C@H](NC(=O)c1c(CCc2ccc(F)cc2)sc2c1CC(C)(C)OC2)c1ccc(C(=O)O)cc1",
    "targetOrSystem": "human PGE2 receptor EP4 subtype (hEP4) (Homo sapiens)",
    "pIC50": "> 7.00"
  },
  {
    "compound": "C[C@H](NC(=O)c1c(CCc2ccc(F)cc2)sc2c1CCCC2)c1ccc(C(=O)O)cc1",
    "targetOrSystem": "human PGE2 receptor EP4 subtype (hEP4) (Homo sapiens)",
    "pIC50": "> 7.00"
  },
  {
    "compound": "COc1ccc(Cc2sc3c(c2C(=O)N[C@@H](C)c2ccc(C(=O)O)cc2)CCOC3)cc1",
    "targetOrSystem": "human PGE2 receptor EP4 subtype (hEP4) (Homo sapiens)",
    "pIC50": "> 7.00"
  },
  {
    "compound": "C[C@H](NC(=O)c1c(C#Cc2ccc(F)cc2)sc2c1CCCCC2)c1ccc(C(=O)O)cc1",
    "targetOrSystem": "human PGE2 receptor EP4 subtype (hEP4) (Homo sapiens)",
    "pIC50": "> 7.00"
  },
  {
    "compound": "C[C@H](NC(=O)c1c(Cc2cccc(C(F)(F)F)c2)sc2c1CCOC2)c1ccc(C(=O)O)cc1",
    "targetOrSystem": "human PGE2 receptor EP4 subtype (hEP4) (Homo sapiens)",
    "pIC50": "> 7.00"
  },
  {
    "compound": "O=C(NCC1CCC(C(=O)O)CC1)c1c(Cc2ccc(F)cc2)sc2c1CCOC2 (stereo not drawn)",
    "targetOrSystem": "human PGE2 receptor EP4 subtype (hEP4) (Homo sapiens)",
    "pIC50": "> 7.00"
  },
  {
    "compound": "C[C@H](NC(=O)c1c(Cc2ccc(F)c(F)c2)sc2c1CCOC2)c1ccc(C(=O)O)cc1",
    "targetOrSystem": "human PGE2 receptor EP4 subtype (hEP4) (Homo sapiens)",
    "pIC50": "> 7.00"
  },
  {
    "compound": "COc1ccc(CCc2sc3c(c2C(=O)N[C@@H](C)c2ccc(C(=O)O)cc2)CCOC3)cc1",
    "targetOrSystem": "human PGE2 receptor EP4 subtype (hEP4) (Homo sapiens)",
    "pIC50": "> 7.00"
  },
  {
    "compound": "C[C@H](NC(=O)c1c(Cc2ccc(C(F)(F)F)cc2)sc2c1CCOC2)c1ccc(C(=O)O)cc1",
    "targetOrSystem": "human PGE2 receptor EP4 subtype (hEP4) (Homo sapiens)",
    "pIC50": "> 7.00"
  },
  {
    "compound": "C[C@H](NC(=O)c1c(NCc2ccc(C(F)(F)F)cc2)sc2c1CCOC2)c1ccc(C(=O)O)cc1",
    "targetOrSystem": "human PGE2 receptor EP4 subtype (hEP4) (Homo sapiens)",
    "pIC50": "> 7.00"
  },
  {
    "compound": "C[C@H](NC(=O)c1c(CCc2ccc(C(F)(F)F)cc2)sc2c1CCOC2)c1ccc(C(=O)O)cc1",
    "targetOrSystem": "human PGE2 receptor EP4 subtype (hEP4) (Homo sapiens)",
    "pIC50": "> 7.00"
  },
  {
    "compound": "C[C@H](NC(=O)c1c(CCc2ccc(F)cc2)sc2c1CCOC2)c1ccc(C(=O)O)cc1",
    "targetOrSystem": "human PGE2 receptor EP4 subtype (hEP4) (Homo sapiens)",
    "pIC50": "> 7.00"
  },
  {
    "compound": "C[C@H](NC(=O)c1c(C#Cc2ccc(F)cc2)sc2c1CC(C)(C)OC2)c1ccc(C(=O)O)cc1",
    "targetOrSystem": "human PGE2 receptor EP4 subtype (hEP4) (Homo sapiens)",
    "pIC50": "6.00 to 7.00"
  },
  {
    "compound": "C[C@H](NC(=O)c1c(CCc2cccc(C(F)(F)F)c2)sc2c1CCOC2)c1ccc(C(=O)O)cc1",
    "targetOrSystem": "human PGE2 receptor EP4 subtype (hEP4) (Homo sapiens)",
    "pIC50": "> 7.00"
  }
]
